# Species: Rattus norvegicus
# protocol.description: Open TG-GATES - Regimen: Single
# Format: toxicity, organism-based, Sprague-Dawley
# Set-up: regimen Single, gender Male, age 6 weeks
# applied.conditions: in vivo, po, 0 mg/kg, 3 h, tissue Plasma, route gavage, dose level Control
measurement.type: A/G
Form rule: numeric answer, no unit written next to it.

Cc1ccc2cc3c(ccc4ccccc43)c3c2c1CC3; 1.1

As a next step, examine the molecule that follows.
A/G for C=C(C)[C@H]1Cc2c(ccc3c2O[C@@H]2COc4cc(OC)c(OC)cc4[C@@H]2C3=O)O1 is 2.3

* * *

# Species on record: Rattus norvegicus
# protocol.description: Open TG-GATES - Regimen: Daily Repeat
# Type: toxicity, organism-based, Sprague-Dawley
# Set-up: regimen Daily Repeat, gender Male, age 6 weeks
# applied.conditions: in vivo, po, 0 mg/kg, 72 h, tissue Plasma, route gavage, dose level Control, time 3 day
measurement.type: PL (mg/dL)
Respond numerically; units are mg/dL and should not be typed.

Field: example entries. Status: answers known.
O=[N+]([O-])c1ccc(O)c([N+](=O)[O-])c1 [2,4-DINITROPHENOL]; 156.2
C[C@H]1C(=O)O[C@@H]2CCN3CC=C(COC(=O)[C@](C)(O)[C@]1(C)O)[C@H]23 [MONOCROTALINE]; 164
C=C(C)[C@H]1Cc2c(ccc3c2O[C@@H]2COc4cc(OC)c(OC)cc4[C@@H]2C3=O)O1 [ROTENONE]; 141.8

PL for Cn1cc[nH]c1=S [METHIMAZOLE] is 161

PL for CCOC(=O)C(C)(C)Oc1ccc(Cl)cc1 [CLOFIBRATE] is 162.4

PL for O=C1CN(/N=C/c2ccc([N+](=O)[O-])o2)C(=O)N1 [NITROFURANTOIN] is 166.6

PL for C[C@H]1O[C@H](O[C@H]2[C@H](O)[C@@H](O)[C@@H](O[C@H]3[C@H](O)[C@@H](O)C(O)O[C@@H]3CO)O[C@@H]2CO)[C@H](O)[C@@H](O)[C@@H]1N[C@H]1C=C(CO)[C@@H](O)[C@H](O)[C@H]1O (some centres undefined) [ACARBOSE] is 144.8

PL for OCCN1CCN(CCCN2c3ccccc3Sc3ccc(C(F)(F)F)cc32)CC1 [FLUPHENAZINE] is 163

PL for Cc1cccc(C)c1OCC(C)N (centres undefined) [MEXILETINE] is 134

* * *

The following molecules are listed with their measured gamma-GTP values.
# Organism: Rattus norvegicus
# protocol.description: Open TG-GATES - Regimen: Daily Repeat
# Assay type: toxicity, organism-based, Sprague-Dawley
# Parameters: regimen Daily Repeat, gender Male, age 6 weeks
# applied.conditions: in vivo, po, 0 mg/kg, […], tissue Plasma, route gavage, dose level Control, time 7 day
Respond numerically; units are IU/L and should not be typed.

C=C(C)[C@H]1Cc2c(ccc3c2O[C@@H]2COc4cc(OC)c(OC)cc4[C@@H]2C3=O)O1; 1
Cn1cc[nH]c1=S; 1
OCCN1CCN(CCCN2c3ccccc3Sc3ccc(C(F)(F)F)cc32)CC1; 1.6
Cc1cccc(C)c1OCC(C)N (stereo not given); 2

gamma-GTP for O=[N+]([O-])c1ccc(O)c([N+](=O)[O-])c1 is 0.8

* * *

# Species: Rattus norvegicus
# protocol.description: Open TG-GATES - Regimen: Daily Repeat
# Format: toxicity, organism-based, Sprague-Dawley
# Set-up: regimen Daily Repeat, gender Male, age 6 weeks
# applied.conditions: in vivo, po, 0 mg/kg, […], tissue Plasma, route gavage, dose level Control, time 14 day
The following compounds are listed with their measured ALT values.
Respond numerically; units are IU/L and should not be typed.

Cn1cc[nH]c1=S; 42.8
CCOC(=O)C(C)(C)Oc1ccc(Cl)cc1 [CLOFIBRATE]; 37.4
C[C@H]1C(=O)O[C@@H]2CCN3CC=C(COC(=O)[C@](C)(O)[C@]1(C)O)[C@H]23; 36
O=C1CN(/N=C/c2ccc([N+](=O)[O-])o2)C(=O)N1; 34.4
Cc1cccc(C)c1OCC(C)N (stereo unspecified); 45.6

As a next step, examine the compound that follows.
ALT for O=[N+]([O-])c1ccc(O)c([N+](=O)[O-])c1 is 33.4

* * *

The following molecules are listed with their measured LDH values.
# Species on record: Rattus norvegicus
# protocol.description: Open TG-GATES - Regimen: Single
# Format: toxicity, organism-based, Sprague-Dawley
# Set-up: regimen Single, gender Male, age 6 weeks
# applied.conditions: in vivo, po, 0 mg/kg, 6 h, tissue Plasma, route gavage, dose level Control
Respond numerically; units are IU/L and should not be typed.

Field: example entries. Status: answers known.
Cc1cccc(C)c1OCC(C)N (centres undefined); 187.6
Cn1cc[nH]c1=S; 228
O=[N+]([O-])c1ccc(O)c([N+](=O)[O-])c1; 96.8
Cc1ccc2cc3c(ccc4ccccc43)c3c2c1CC3; 114.8
C=C(C)[C@H]1Cc2c(ccc3c2O[C@@H]2COc4cc(OC)c(OC)cc4[C@@H]2C3=O)O1; 87

LDH for CCOC(=O)C(C)(C)Oc1ccc(Cl)cc1 [CLOFIBRATE] is 224

LDH for C[C@H]1C(=O)O[C@@H]2CCN3CC=C(COC(=O)[C@](C)(O)[C@]1(C)O)[C@H]23 is 230.6

LDH for OCCN1CCN(CCCN2c3ccccc3Sc3ccc(C(F)(F)F)cc32)CC1 is 93

LDH for C[C@H]1O[C@H](O[C@H]2[C@H](O)[C@@H](O)[C@@H](O[C@H]3[C@H](O)[C@@H](O)C(O)O[C@@H]3CO)O[C@@H]2CO)[C@H](O)[C@@H](O)[C@@H]1N[C@H]1C=C(CO)[C@@H](O)[C@H](O)[C@H]1O (some centres undefined) is 65

* * *

# Organism: Rattus norvegicus
# protocol.description: Open TG-GATES - Regimen: Daily Repeat
# Format: toxicity, organism-based, Sprague-Dawley
# Design: regimen Daily Repeat, gender Male, age 6 weeks
# applied.conditions: in vivo, po, 0 mg/kg, […], tissue Blood, route gavage, dose level Control, time 14 day
measurement.type: Hb (g/dL)
Respond numerically; units are g/dL and should not be typed.

Field: example entries. Status: answers known.
CCOC(=O)C(C)(C)Oc1ccc(Cl)cc1 [CLOFIBRATE]; 14.3
OCCN1CCN(CCCN2c3ccccc3Sc3ccc(C(F)(F)F)cc32)CC1 [FLUPHENAZINE]; 14.2
Cn1cc[nH]c1=S [METHIMAZOLE]; 13.7
C=C(C)[C@H]1Cc2c(ccc3c2O[C@@H]2COc4cc(OC)c(OC)cc4[C@@H]2C3=O)O1 [ROTENONE]; 13.9
C[C@H]1C(=O)O[C@@H]2CCN3CC=C(COC(=O)[C@](C)(O)[C@]1(C)O)[C@H]23 [MONOCROTALINE]; 14.1
C[C@H]1O[C@H](O[C@H]2[C@H](O)[C@@H](O)[C@@H](O[C@H]3[C@H](O)[C@@H](O)C(O)O[C@@H]3CO)O[C@@H]2CO)[C@H](O)[C@@H](O)[C@@H]1N[C@H]1C=C(CO)[C@@H](O)[C@H](O)[C@H]1O (some centres undefined) [ACARBOSE]; 14.6
O=C1CN(/N=C/c2ccc([N+](=O)[O-])o2)C(=O)N1 [NITROFURANTOIN]; 14.6
Cc1cccc(C)c1OCC(C)N (centres undefined) [MEXILETINE]; 12.8

Hb for O=[N+]([O-])c1ccc(O)c([N+](=O)[O-])c1 [2,4-DINITROPHENOL] is 13.8

* * *

The following compounds are listed with their measured BUN values.
# Species on record: Rattus norvegicus
# protocol.description: Open TG-GATES - Regimen: Daily Repeat
# Assay type: toxicity, organism-based, Sprague-Dawley
# Design: regimen Daily Repeat, gender Male, age 6 weeks
# applied.conditions: in vivo, po, 0 mg/kg, […], tissue Plasma, route gavage, dose level Control, time 28 day
Respond numerically; units are mg/dL and should not be typed.

Field: example entries. Status: answers known.
Cc1cccc(C)c1OCC(C)N (centres undefined); 19.2
Cn1cc[nH]c1=S; 18.4
O=[N+]([O-])c1ccc(O)c([N+](=O)[O-])c1; 20.2
C=C(C)[C@H]1Cc2c(ccc3c2O[C@@H]2COc4cc(OC)c(OC)cc4[C@@H]2C3=O)O1; 18.2
C[C@H]1O[C@H](O[C@H]2[C@H](O)[C@@H](O)[C@@H](O[C@H]3[C@H](O)[C@@H](O)C(O)O[C@@H]3CO)O[C@@H]2CO)[C@H](O)[C@@H](O)[C@@H]1N[C@H]1C=C(CO)[C@@H](O)[C@H](O)[C@H]1O (some centres undefined); 17.2

As a next step, examine the compound that follows.
BUN for CCOC(=O)C(C)(C)Oc1ccc(Cl)cc1 [CLOFIBRATE] is 15.2
